The reported measurements were obtained from paper PMC6269892.

Molecular target: estrogen receptor alpha (ERalpha) (Homo sapiens)
Construct: purchased Wako Chemicals (Osaka, Japan)
Sequence (P03372 whole entry): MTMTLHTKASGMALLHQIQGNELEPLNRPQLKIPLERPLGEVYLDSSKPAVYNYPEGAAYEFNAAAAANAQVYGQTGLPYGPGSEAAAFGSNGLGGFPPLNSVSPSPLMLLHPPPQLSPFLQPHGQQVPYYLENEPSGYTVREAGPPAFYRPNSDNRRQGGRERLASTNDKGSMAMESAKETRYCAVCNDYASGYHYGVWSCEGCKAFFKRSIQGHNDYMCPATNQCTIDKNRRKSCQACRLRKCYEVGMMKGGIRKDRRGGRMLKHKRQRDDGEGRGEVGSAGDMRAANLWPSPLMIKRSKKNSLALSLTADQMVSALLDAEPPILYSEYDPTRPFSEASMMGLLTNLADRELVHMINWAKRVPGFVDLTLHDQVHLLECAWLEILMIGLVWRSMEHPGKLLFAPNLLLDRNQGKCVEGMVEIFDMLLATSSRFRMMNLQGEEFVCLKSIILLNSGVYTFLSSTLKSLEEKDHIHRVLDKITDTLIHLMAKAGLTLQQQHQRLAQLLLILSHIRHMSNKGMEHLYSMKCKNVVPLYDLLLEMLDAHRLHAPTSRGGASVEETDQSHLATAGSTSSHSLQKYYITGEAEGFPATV
Experiment: Estrogen-R (α) competitor screening kit, ligand binding screen
Settings: compound at 10^−4 M; mean ± S.E.M., n = 4; percentage of the negative control
Procedure: An estrogen-R (α) competitor screening kit was purchased from Wako Chemicals (Osaka, Japan). The assay depends on the competition between the samples applied in different concentrations and the labeled estrogen mixture. The amount of the ligand that binds to the ERalpha coated on the microplate well is determined by the dynamic equilibrium among all the ligand concentrations in the mixture, the difference of their binding affinities to the receptor, and the incubation time. […]
Measured Metric: % Binding to ERα (%)

{"Molecule": "O=C1OC[C@H](Cc2ccc(O)c(O)c2)[C@H]1Cc1ccc(O)c(O)c1 [Compound 1, (−)-dihydroxyenterolactone]", "Assayed Target": "estrogen receptor alpha (ERalpha) (Homo sapiens)", "Unit Symbol": "%", "% Binding to ERα": 13.7}
{"Molecule": "COc1cc(C[C@H]2C(=O)OC[C@@H]2Cc2ccc(O)c(O)c2)ccc1O", "Assayed Target": "estrogen receptor alpha (ERalpha) (Homo sapiens)", "Unit Symbol": "%", "% Binding to ERα": 13.5}
{"Molecule": "COc1cc(C[C@H]2C(=O)OC[C@@H]2Cc2ccc(OC)c(OC)c2)ccc1O [Compound 8, (−)-arctigenin]", "Assayed Target": "estrogen receptor alpha (ERalpha) (Homo sapiens)", "Unit Symbol": "%", "% Binding to ERα": "−4.3"}
{"Molecule": "COc1ccc(C[C@H]2COC(=O)[C@@H]2Cc2ccc(O)c(OC)c2)cc1O", "Assayed Target": "estrogen receptor alpha (ERalpha) (Homo sapiens)", "Unit Symbol": "%", "% Binding to ERα": 1.2}
{"Molecule": "COc1cc(C[C@H]2COC(=O)[C@@H]2Cc2ccc(O)c(OC)c2)ccc1O [Compound 5, (−)-matairesinol]", "Assayed Target": "estrogen receptor alpha (ERalpha) (Homo sapiens)", "Unit Symbol": "%", "% Binding to ERα": 18.1}

a: COc1cc(C[C@H]2COC(=O)[C@@H]2Cc2ccc(O)c(O)c2)ccc1O
b: COc1ccc(C[C@H]2COC(=O)[C@@H]2Cc2ccc(O)c(O)c2)cc1OC
c: COc1ccc(C[C@H]2COC(=O)[C@@H]2Cc2ccc(O)c(O)c2)cc1O
Ordering: ascending % Binding to ERα. Quick reminder: the answer is the labels in the order asked. c, b, a
(c: −0.5%, b: 1.4%, a: 14.1%)

---

molecular target: estrogen receptor alpha (ERalpha) (Homo sapiens); construct: purchased Wako Chemicals (Osaka, Japan); experiment: Estrogen-R (α) competitor screening kit, ligand binding screen; conditions: compound at 5 × 10^−4 M; mean ± S.E.M., n = 4; percentage of the negative control
Measured Metric: % Binding to ERα (%)

Observe how each entry below is paired with its result.
{"Compound": "COc1cc(C[C@H]2COC(=O)[C@@H]2Cc2ccc(O)c(O)c2)ccc1O", "Unit Symbol": "%", "% Binding to ERα": 25.8}
{"Compound": "COc1ccc(C[C@H]2COC(=O)[C@@H]2Cc2ccc(O)c(O)c2)cc1OC", "Unit Symbol": "%", "% Binding to ERα": 16.6}

A: O=C1OC[C@H](Cc2ccc(O)c(O)c2)[C@H]1Cc1ccc(O)c(O)c1 [Compound 1, (−)-dihydroxyenterolactone]
B: COc1ccc(C[C@H]2COC(=O)[C@@H]2Cc2ccc(O)c(OC)c2)cc1O
C: COc1ccc(C[C@H]2COC(=O)[C@@H]2Cc2ccc(O)c(O)c2)cc1O
D: COc1cc(C[C@H]2COC(=O)[C@@H]2Cc2ccc(O)c(OC)c2)ccc1O [Compound 5, (−)-matairesinol]
Sort the compounds on % Binding to ERα; start with the lowest figure. State the ranking by listing the labels in the requested order. B, D, C, A
